study-target: COX-2 (Homo sapiens, UniProt P35354)
Sequence (P35354 18-604): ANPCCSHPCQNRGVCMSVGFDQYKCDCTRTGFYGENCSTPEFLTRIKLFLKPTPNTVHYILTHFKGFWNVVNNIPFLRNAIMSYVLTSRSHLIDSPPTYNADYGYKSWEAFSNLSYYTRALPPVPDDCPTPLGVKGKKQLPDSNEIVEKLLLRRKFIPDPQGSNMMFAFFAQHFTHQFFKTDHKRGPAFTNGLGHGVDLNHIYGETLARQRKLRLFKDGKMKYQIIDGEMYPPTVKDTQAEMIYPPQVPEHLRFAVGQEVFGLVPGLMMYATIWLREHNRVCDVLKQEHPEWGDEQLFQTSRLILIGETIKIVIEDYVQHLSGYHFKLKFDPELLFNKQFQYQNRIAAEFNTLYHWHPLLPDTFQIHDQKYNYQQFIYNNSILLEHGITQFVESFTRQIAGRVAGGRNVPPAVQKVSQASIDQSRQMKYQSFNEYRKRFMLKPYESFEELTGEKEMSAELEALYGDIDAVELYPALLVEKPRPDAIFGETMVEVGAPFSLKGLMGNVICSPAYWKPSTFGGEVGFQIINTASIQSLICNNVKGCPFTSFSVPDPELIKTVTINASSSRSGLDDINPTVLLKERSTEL
protocol-description: cell-based
measurement-parameters: Table IV; CHO[hCOX-2] cells, 10 μM AA
Measured IC50, listed per entry.

Completed entries (count: 4):
In [3]: df
Out[3]:
                                smiles_data  measured
0  CC1(C)OC(=O)C(Oc2ccc(C(C)(C)O)cc2)=C1c1ccc(S(C)(=O)=O)cc1   0.98 µM
1  CC1(C)OC(=O)C(Oc2cccc(C(F)(F)F)c2)=C1c1ccc(S(C)(=O)=O)cc1    > 5 µM
2  Cc1ncc(OC2=C(c3ccc(S(C)(=O)=O)cc3)C(C)(C)OC2=O)cc1Br   0.55 µM
3  CC[C@@]1(C)OC(=O)C(Oc2ccc(F)cn2)=C1c1ccc(S(C)(=O)=O)cc1   0.06 µM

Please look at the following molecule next.
input: Specify reported IC50 for the molecule shown: CC1(C)OC(=O)C(Oc2cncc(Cl)c2)=C1c1ccc(S(C)(=O)=O)cc1
output: 0.2 µM

Values compiled from patent US5981576A.
